# Experimental system: human CDK4 and genetically truncated (1-264) cyclin D3 (Homo sapiens)
# Sequence (P11802 whole entry, the tested form may be a part): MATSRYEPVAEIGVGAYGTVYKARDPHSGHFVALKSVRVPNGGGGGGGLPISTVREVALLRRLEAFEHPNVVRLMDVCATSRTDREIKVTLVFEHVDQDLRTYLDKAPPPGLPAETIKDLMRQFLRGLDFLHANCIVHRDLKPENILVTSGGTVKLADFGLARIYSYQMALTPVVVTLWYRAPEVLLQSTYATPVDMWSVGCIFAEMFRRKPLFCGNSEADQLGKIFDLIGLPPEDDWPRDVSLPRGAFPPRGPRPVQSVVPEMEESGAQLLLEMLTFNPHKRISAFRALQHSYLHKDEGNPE
# Sequence (P30281 1-264 partner): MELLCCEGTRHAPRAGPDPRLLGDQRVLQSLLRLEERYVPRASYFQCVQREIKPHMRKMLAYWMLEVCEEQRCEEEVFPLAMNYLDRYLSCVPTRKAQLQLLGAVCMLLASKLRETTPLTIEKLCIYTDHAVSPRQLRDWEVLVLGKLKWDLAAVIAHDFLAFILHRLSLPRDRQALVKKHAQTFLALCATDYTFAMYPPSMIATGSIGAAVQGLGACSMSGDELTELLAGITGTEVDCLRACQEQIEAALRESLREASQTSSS
# Assay text: Inhibition of CDK4/Cyclin D Retinoblastoma Kinase Activity
# Assay type: biochemical
# Condition summary: at 0.03 μM
# Procedure: Cyclin-dependent kinase activity was measured by quantifying the enzyme-catalyzed, time-dependent incorporation of radioactive phosphate from [^32P]ATP or [^33P]ATP into a protein substrate. […] The phosphorylated substrate was then captured on a nitrocellulose or phosphocellulose membrane using a 96-well filtration manifold, and unincorporated radioactivity was removed by repeated washing with 0.85% phosphoric acid. Radioactivity was quantified by exposing the dried membranes to a phosphorimager. […]
Measured metric: CDK4 % Inhibition at 0.03 μM (%)

In the examples that follow, each entry is paired with its recorded CDK4 % Inhibition at 0.03 μM.
{"Compound": "Cc1cc(C)cc(C(=O)N2CCC(Nc3nc(N)c(C(=O)c4c(F)cccc4F)s3)CC2)c1 [Example R142]", "CDK4 % Inhibition at 0.03 μM, %": 83}
{"Compound": "Nc1nc(NC2CCN(C(=O)CCCC3CCCCC3)CC2)sc1C(=O)c1c(F)cccc1F [Example R102]", "CDK4 % Inhibition at 0.03 μM, %": 34}
{"Compound": "Nc1nc(NC2CCN(C(=S)Oc3ccc(F)cc3)CC2)sc1C(=O)c1c(F)cccc1F [Example R85]", "CDK4 % Inhibition at 0.03 μM, %": 81}

I: Nc1nc(NC2CCN(C(=O)CCC3CCCCC3)CC2)sc1C(=O)c1c(F)cccc1F [Example R101]
II: COC(=O)CCCCCCCCC(=O)N1CCC(Nc2nc(N)c(C(=O)c3c(F)cccc3F)s2)CC1 [Example R76]
Query: Of I and II , which one carries the higher reported CDK4 % Inhibition at 0.03 μM? The response must carry the label of the picked entry.
Result: II
(II: 64%, I: 39%)

Each recorded value in this set is attributed to patent US20050101595A1.
